Target: Dual specificity protein phosphatase 6 (Rattus norvegicus) (UniProt Q64346)
Sequence (Q64346 whole entry, looked up): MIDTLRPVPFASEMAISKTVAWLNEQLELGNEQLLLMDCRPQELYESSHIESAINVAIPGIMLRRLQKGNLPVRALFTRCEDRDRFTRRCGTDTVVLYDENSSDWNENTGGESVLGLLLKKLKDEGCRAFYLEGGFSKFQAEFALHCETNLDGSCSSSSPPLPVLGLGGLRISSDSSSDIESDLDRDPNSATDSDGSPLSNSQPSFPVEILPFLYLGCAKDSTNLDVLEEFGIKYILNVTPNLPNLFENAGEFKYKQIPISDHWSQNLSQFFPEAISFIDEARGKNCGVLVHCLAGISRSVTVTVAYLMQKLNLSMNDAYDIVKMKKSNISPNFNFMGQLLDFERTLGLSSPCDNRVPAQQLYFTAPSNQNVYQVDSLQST
Assay: MKP-3 phosphatase inhibitors, primary screen, biochemical, rat enzyme, in vitro (AID 425);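 note: plate controls were vehicle for no effect and reference inhibitor for full effect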
Conditions: recombinant MKP-3 phosphatase activity, fluorescence; at 20 µM; hits give high values
The whole screen tested about 110,000 compounds, of which about 190 (0.17%) were called active. Many of the other results were omitted from the sample, so actives are more common in it than they were. Potency and affinity values are given separately.
reported.metric: inhibition (%)
State the answer as a number, implicitly in %.

| compound | scale.unit | inhibition |
| --- | --- | --- |
| O=C(O)c1cccc2c1NC(c1ccccc1Br)C1CC=CC21 (stereo not given) | % | 15.1 |
| CN(c1ccc(C(=O)N2CCCCC2)cc1)S(=O)(=O)c1ccccc1 | % | 2.4 |
| Cc1cc(N)ccc1-n1c(C)ccc1C | % | -1.5 |
| CCc1c(C)nc2c(OC)cccc2c1Cl | % | 2.1 |
| CCOC(=O)c1sc2ncn(C(C)C(=O)OCC)c(=O)c2c1C (stereo not given) | % | 0.5 |

Reported inhibition for Cc1ccc(-c2ccccc2)n1-c1cccc(C(=O)O)c1 was 2.4

Reported inhibition for O=C(O)c1cccc2c1NC(c1cccc(Cl)c1Cl)C1CC=CC21 (stereo not given) was 27.8

Reported inhibition for CCOC(=O)c1sc2ncn(C(CC)C(=O)OC)c(=O)c2c1C (stereo not given) was -9.8

Reported inhibition for Cc1ccc(C(=O)O)cc1-n1c(C)ccc1C was 59

----------
Target: Dual specificity protein phosphatase 6 (Rattus norvegicus) (UniProt Q64346)
Experiment: MKP-3 phosphatase inhibitors, primary screen, biochemical, rat enzyme, in vitro (AID 425);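 note: plate controls were vehicle for no effect and reference inhibitor for full effect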
Conditions: recombinant MKP-3 phosphatase activity, fluorescence; at 20 µM; hits give high values
The whole screen tested about 110,000 compounds, of which about 190 (0.17%) were called active. The sample as a whole holds a higher share of actives than the screen did. Potency and affinity values are given separately.
reported.metric: inhibition (%)
State the answer as a number, implicitly in %.

For orientation, consider the following solved cases.
| molecule | scale.unit | number |
| --- | --- | --- |
| CCOC(=O)CSc1nnc(Cn2nnc(-c3ccccc3)n2)n1C | % | 0.9 |
| COc1ccc(C2SC(C)C(=O)N2c2ccc(C)cc2)cc1 (stereo not drawn) | % | -0.4 |
| CCn1c(/N=C/c2c[nH]c3ccccc23)nc2ccccc21 | % | -7.4 |
| O=C1c2ccc(-c3nc4ccccc4c(=O)o3)cc2C(=O)N1c1ccc(I)cc1 | % | -0.1 |
| Cc1cccc(Nc2nc3c(s2)CCCC3)c1 | % | 95.3 |

Reported inhibition for Clc1cccc(Nc2nc3c(s2)CCCC3)c1 was 0.9

Reported inhibition for CC(Oc1ccc(Cl)cc1Cl)C(=O)N1CCN(Cc2ccccc2)CC1 (stereo not drawn) was -0.2

Reported inhibition for Cc1c(Cl)cccc1NC(=O)C(=O)NCc1ccc2c(c1)OCO2 was 0.1

Reported inhibition for CN=C(Nc1ccc(F)cc1)SC1CC(=O)N(c2ccccc2F)C1=O (stereo not drawn) was 1.3

Reported inhibition for Cc1cccc(C(C)C)c1NC(=O)c1cccnc1 was -7.7

Reported inhibition for Cc1onc(-c2ccccc2Cl)c1C(=O)NCc1cccs1 was 5.5

Reported inhibition for O=C1OCCC1Sc1nc2ccccc2[nH]1 (stereo not drawn) was -11

Reported inhibition for Cc1ccc(C)c(Nc2nc3c(s2)CCCC3)c1 was -4

Reported inhibition for Cn1c(O)c(N=NC(=O)COc2ccc3ccccc3c2)c2cc(Br)ccc21 was 3

Reported inhibition for COC(=O)c1cc(C(=O)NC2CCCCCC2)cc([N+](=O)[O-])c1 was -3.5

Reported inhibition for CCn1c(/N=C/c2c(O)ccc3ccccc23)nc2ccccc21 was 78.4

Reported inhibition for CC1=C(C(=O)Nc2cccc(C)c2)C(c2cc(Br)ccc2O)NC(=O)N1 (stereo not drawn) was -0.3

Reported inhibition for COc1ccc(Cl)cc1NC(=O)c1cc2nc(-c3ccccc3)cc(C)n2n1 was 63.8

Reported inhibition for O=C(Cc1ccccc1)Nc1cc(C(=O)O)cc(C(=O)O)c1 was 0.2

Reported inhibition for COC(=O)c1c(-c2ccccc2)csc1NC(=O)CCCC(=O)O was 3.6

Reported inhibition for CC(C)(C)C(=O)/C=C(\N)c1ccccn1 was -3.7

Reported inhibition for CCOC(=O)C1(C)C=C(Nc2ccc(S(=O)(=O)Nc3nccs3)cc2)C(=O)N1c1ccccc1 (stereo not drawn) was 2.7

Reported inhibition for O=C(Cn1c(O)c(N=NC(=O)C(=O)Nc2ccc([N+](=O)[O-])cc2)c2ccccc21)Nc1ccccc1 was -0.4

----------
Biological target: Dual specificity protein phosphatase 6 (Rattus norvegicus) (UniProt Q64346)
Test: MKP-3 phosphatase inhibitors, primary screen, biochemical, rat enzyme, in vitro (AID 425);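 note: plate controls were vehicle for no effect and reference inhibitor for full effect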
Conditions: recombinant MKP-3 phosphatase activity, fluorescence; at 20 µM
Screen size: about 110,000 compounds; about 190 (0.17%) were called active. Rule as the data show it: active = inhibition above about 50%; inactive = the rest. The sample holds actives, similar compounds and a random draw of the others, so the mix is not that of the screen. Potency and affinity values are given separately.
Please reply with one of these outcomes: 1 (active), 0 (inactive)

Examples with answers:
| chemical.smiles | system.tested | assigned.label |
| --- | --- | --- |
| CN(C(=S)Nc1ccccc1)c1ccccc1 | Dual specificity protein phosphatase 6 (Rattus norvegicus) (UniProt Q64346) | 1 |
| Cc1ccc(C)c(S(=O)(=O)/N=C2\C=CC(=O)c3ccccc32)c1 | Dual specificity protein phosphatase 6 (Rattus norvegicus) (UniProt Q64346) | 1 |
| CSCCNS(=O)(=O)c1ccc(NC(C)=O)cc1 | Dual specificity protein phosphatase 6 (Rattus norvegicus) (UniProt Q64346) | 0 |
| O=C1C=CC(=NS(=O)(=O)c2ccccc2)c2ccccc21 | Dual specificity protein phosphatase 6 (Rattus norvegicus) (UniProt Q64346) | 1 |
| CCc1ccc(OCC(=O)NCCN(C)C)c(Br)c1 | Dual specificity protein phosphatase 6 (Rattus norvegicus) (UniProt Q64346) | 0 |

Qu. Assay result, entry Cc1ccccc1S(=O)(=O)N=C1C=CC(=O)C(Cl)=C1 — outcome?
Ans. 0

----------
As shown below, each of these compounds has a reported inhibition value.
Target: Dual specificity protein phosphatase 6 (Rattus norvegicus)
Experiment: MKP-3 phosphatase inhibitors, primary screen, biochemical, rat enzyme, in vitro (AID 425);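 note: plate controls were vehicle for no effect and reference inhibitor for full effect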
Settings: recombinant MKP-3 phosphatase activity, fluorescence; at 20 µM; hits give high values
Out of some 110,000 compounds screened, about 190 (0.17%) were called active. Only a selection was taken, and actives are over-represented in it overall. Measured potencies and affinities stand elsewhere.
State the answer as a number, implicitly in %.

For orientation, consider the following solved cases.
| compound | scale.unit | inhibition |
| --- | --- | --- |
| Cc1nc(=O)c(-c2ccccc2)c(C)n1-c1ccc(C(=O)O)c(O)c1 | % | 3.2 |
| CC(C)CCNC(=O)Cn1cc2c(n1)CCCCC2 | % | -5.2 |

Param item: Cc1ccc(-c2ccccc2)n1-c1ccccc1C(=O)O ; param system: Dual specificity protein phosphatase 6 (Rattus norvegicus); output inhibition: 5

Param item: O=C(COc1ccccc1[N+](=O)[O-])Nc1ccc(-c2nc3ncccc3o2)cc1 ; param system: Dual specificity protein phosphatase 6 (Rattus norvegicus); output inhibition: 16

Param item: Cc1ccc2oc(-c3cccc(NC(=O)COc4ccccc4[N+](=O)[O-])c3C)nc2c1 ; param system: Dual specificity protein phosphatase 6 (Rattus norvegicus); output inhibition: 0.7

Param item: CC(=O)N(C)C1=C(Cl)C(=O)c2ccccc2C1=O ; param system: Dual specificity protein phosphatase 6 (Rattus norvegicus); output inhibition: 54.9

Param item: CCCCNCCCOc1ccccc1CC ; param system: Dual specificity protein phosphatase 6 (Rattus norvegicus); output inhibition: -0.3

Param item: COc1cccc(-c2cc(C(=O)NC(C)c3ccccc3)c3ccccc3n2)c1 (stereo not given) ; param system: Dual specificity protein phosphatase 6 (Rattus norvegicus); output inhibition: 2.7

Param item: Cc1nnc(NC(=O)CSc2cn(Cc3ccccc3)c3ccccc23)s1 ; param system: Dual specificity protein phosphatase 6 (Rattus norvegicus); output inhibition: -5.8

Param item: Cc1ccc(C)n1-c1ccc(Cl)c(C(=O)O)c1 ; param system: Dual specificity protein phosphatase 6 (Rattus norvegicus); output inhibition: 71.5

Param item: O=C(CN1CCN(Cc2ccccc2Cl)C1=O)NC1CCCCCCC1 ; param system: Dual specificity protein phosphatase 6 (Rattus norvegicus); output inhibition: -3.3

----------
As shown below, each of these molecules has a reported inhibition value.
Target: Dual specificity protein phosphatase 6 (Rattus norvegicus) (UniProt Q64346)
Assay: MKP-3 phosphatase inhibitors, primary screen, biochemical, rat enzyme, in vitro (AID 425);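 note: plate controls were vehicle for no effect and reference inhibitor for full effect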
Details: recombinant MKP-3 phosphatase activity, fluorescence; at 20 µM; hits give high values
Screen size: about 110,000 compounds; about 190 (0.17%) were called active. The entries come from a sample that favours actives as a whole. Measured potencies and affinities stand elsewhere.
State the answer as a number, implicitly in %.

| chemical.smiles | scale.unit | number |
| --- | --- | --- |
| O=C(O)c1cc(-c2ccc(/C=C3/Sc4ccccc4C3=O)o2)ccc1O | % | 84.4 |
| O=C1NC(=O)/C(=C\c2ccc(-c3ccc(C(=O)O)cc3)o2)S1 | % | 2.5 |
| Cc1onc(-c2ccccc2)c1C(=O)NCCNc1c(Cl)cccc1[N+](=O)[O-] | % | 3.9 |
| C=CCOc1ccc(/C=C2\C(=O)NC(C)=C2C(=O)OC)cc1OC | % | 3 |
| Nc1cc(S(=O)(=O)O)cc2cccc(S(=O)(=O)O)c12 | % | -2 |
| O=C1NC(=O)/C(=C/c2ccc(-c3ccc(O)c(C(=O)O)c3)o2)S1 | % | 105 |
| Nc1ccc(S(=O)(=O)O)c2cccc(S(=O)(=O)O)c12 | % | -2.3 |
| O=C1/C(=C/c2ccc(-c3ccc(Cl)cc3C(=O)O)o2)Sc2ccccc21 | % | 7.4 |

Reported inhibition for Cc1ccc(C)n1-c1ccc(SCC(=O)O)cc1 was 106

Reported inhibition for CCOc1ccc(NC(=O)CSc2nc3ccc(OC)cc3[nH]2)cc1 was -0.2

Reported inhibition for COc1ccc(/C=C2/C(=N)N3N=C(C(C)C)SC3=NC2=O)cc1OC was 0

Data provenance is PubChem BioAssay AID425.
